- TARGET_OR_SYSTEM: mouse ENT-1 transporter (Mus musculus)
- PROTOCOL_NOTES: Measure of adenosine transport activity (ENT1 adenosine uptake inhibition)
- SETTINGS: stable cells expressing mouse ENT-1, [2,8-3H]-adenosine 6 nM, 20 min
Doc: threshold 2 µM (exclusive). Items with IC50 beneath it return satisfied; others return not satisfied.

Check out these entries, answers already filled in.
TEST_SMILES | TARGET_OR_SYSTEM | ASSIGNED_LABEL
Cc1ncc(-c2ccc3c(c2)N(c2cnn(C)c2)C(=O)C3(C)C)cn1 | mouse ENT-1 transporter (Mus musculus) | satisfied
Cc1ncc(-c2ccc3c(c2)N(c2c[nH]cn2)C(=O)C3(C)C)cn1 | mouse ENT-1 transporter (Mus musculus) | not satisfied
Cc1cnc(-c2ccc3c(c2)N(c2ccc(C)nn2)C(=O)C3(C)C)cn1 | mouse ENT-1 transporter (Mus musculus) | not satisfied
Cc1ncc(-c2ccc3c(c2)N(c2nnc(C)o2)C(=O)C3(C)C)cn1 | mouse ENT-1 transporter (Mus musculus) | satisfied
Cc1ncc(-c2ccc3c(c2)N(c2cncc(CO)c2)C(=O)C3(C)C)cn1 | mouse ENT-1 transporter (Mus musculus) | satisfied

A record lists Cc1cc(N2C(=O)C(C)(C)c3ccc(-c4cnccc4F)cc32)ccn1 . Is its IC50 below 2 µM? not satisfied

* * *

Entries and their IC50
- TARGET_OR_SYSTEM: mouse ENT-1 transporter (Mus musculus, UniProt Q9JIM1)
- Sequence (Q9JIM1 whole entry): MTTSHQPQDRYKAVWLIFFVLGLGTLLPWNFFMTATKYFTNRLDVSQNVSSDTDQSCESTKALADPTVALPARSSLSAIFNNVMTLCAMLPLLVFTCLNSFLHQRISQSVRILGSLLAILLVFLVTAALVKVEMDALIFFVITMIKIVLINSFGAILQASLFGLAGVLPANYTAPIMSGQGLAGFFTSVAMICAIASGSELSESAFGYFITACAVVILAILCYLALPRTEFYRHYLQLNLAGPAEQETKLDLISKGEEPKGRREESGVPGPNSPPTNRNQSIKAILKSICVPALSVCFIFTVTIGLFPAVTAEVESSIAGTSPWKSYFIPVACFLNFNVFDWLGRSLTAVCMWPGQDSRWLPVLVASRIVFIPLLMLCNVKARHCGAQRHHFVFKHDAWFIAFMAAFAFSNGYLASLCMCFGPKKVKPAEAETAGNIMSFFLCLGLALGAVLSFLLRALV
- PROTOCOL_NOTES: Measure of adenosine transport activity (ENT1 adenosine uptake inhibition)
- SETTINGS: stable cells expressing mouse ENT-1, [2,8-3H]-adenosine 6 nM, 20 min

Entry Cc1cnc(N2C(=O)C(C)(C)c3ccc(-c4cnc(C)c(F)c4)cc32)cn1 has what IC50? 0.037 µM

What about Cc1cncc(N2C(=O)C(C)(C)c3ccc(-c4cnc(C)nc4)cc32)n1 ? 0.67 µM

What about Cc1ncc(-c2ccc3c(c2)N(c2cnc(C#N)cn2)C(=O)C3(C)C)cn1 ? 0.154 µM

What about Cc1cccc(-c2ccc3c(c2)N(c2cncc(C)n2)C(=O)C3(C)C)n1 ? 2.28 µM

* * *

- TARGET_OR_SYSTEM: UniProt:Q9JIM1
- PROTOCOL_NOTES: Measure of adenosine transport activity (ENT1 adenosine uptake inhibition)
- SETTINGS: stable cells expressing mouse ENT-1, [2,8-3H]-adenosine 6 nM, 20 min
RESULT_TYPE: IC50 (nM)
// return numeric value only (unit: nM, not printed)

// worked examples, IC50 included
COMPOUND | IC50 / nM
Cc1ncc(-c2ccc3c(c2)N(c2cc(Cl)nc(Cl)c2)C(=O)C3(C)C)cn1 [Example 115] | 144
Cc1ncc(-c2ccc3c(c2)N(c2ccc(C)[n+]([O-])n2)C(=O)C3(C)C)cn1 (single isomer, unassigned) [Example 106] | 481
Cc1ncc(-c2ccc3c(c2)N(c2cncc(C4CC4)n2)C(=O)C3(C)C)cn1 [Example 97] | 102

Consider now this further compound.
Entry Cc1ncc(-c2ccc3c(c2)N(c2cn(C)c(C)n2)C(=O)C3(C)C)cn1 [Example 65] has what IC50? 6740

* * *

- System: L-687,414-induced hyperlocomotion
- PROTOCOL_NOTES: L-687,414-induced hyperlocomotion
- Format: in vivo, mouse
- SETTINGS: Mus musculus; Dose ip 30 mg/kg, mice, 50 mg/kg s.c. L-687,414
Entries and their inhibition in vivo at 30 mg/kg
// return numeric value only (unit: %, not printed)

// worked examples, inhibition in vivo at 30 mg/kg included
COMPOUND | READING_UNIT | inhibition in vivo at 30 mg/kg
Cc1cc(-c2cc3c(cn2)C(C)(C)C(=O)N3c2cn(C)cn2)ccn1 [Example 111] | % | 51
Cc1cc(-c2cc3c(cn2)C(C)(C)C(=O)N3c2ccc(C)nn2)ccn1 [Example 109] | % | 51.3
Cc1ncc(-c2ccc3c(c2)N(c2ccc(C)c(C)n2)C(=O)C3(C)C)cn1 [Example 70] | % | 93.5
Cc1ccc(N2C(=O)C(C)(C)c3ccc(-c4nnc(C)o4)cc32)cn1 [Example 34] | % | 59.7
Cc1cc(N2C(=O)C(C)(C)c3ccc(-c4cnc(C)nc4)cc32)sn1 [Example 124] | % | 53.3

Entry CC(C)c1cn(-c2ccc3c(c2)N(c2ccn(C)n2)C(=O)C3(C)C)cn1 [Example 37] has what inhibition in vivo at 30 mg/kg? 73.8

What about Cc1ncc(-c2ccc3c(c2)N(c2cncc(C4CC4)n2)C(=O)C3(C)C)cn1 [Example 97] ? 78.5

What about Cc1ncc(-c2ccc3c(c2)N(c2ccncc2)C(=O)C3(C)C)cn1 [Example 1] ? 95.4

* * *

- System: L-687,414-induced hyperlocomotion
- PROTOCOL_NOTES: L-687,414-induced hyperlocomotion
- Type: in vivo, mouse
- SETTINGS: Mus musculus; Dose ip 30 mg/kg, mice, 50 mg/kg s.c. L-687,414
Classification field: Condition met = inhibition in vivo at 30 mg/kg at or over 80%; Condition not met = inhibition in vivo at 30 mg/kg under 80%.

Check out these entries, answers already filled in.
TEST_SMILES | ASSIGNED_LABEL
Cc1ncc(-c2ccc3c(c2)N(c2ccn(C)n2)C(=O)C3(C)C)o1 | Condition not met
Cc1ncc(-c2ccc3c(c2)N(c2cn(C)cn2)C(=O)C3(C)C)cn1 | Condition met
Cc1ncc(-c2ccc3c(c2)N(c2cnc(C)nc2)C(=O)C3(C)C)cn1 | Condition met

// inclusive: inhibition in vivo at 30 mg/kg at least 80%? input: Cc1ncc(-c2ccc3c(c2)N(c2cnccn2)C(=O)C3(C)C)cn1 Condition met

What about Cc1ncc(-c2ccc3c(c2)N(c2ncc(Cl)cn2)C(=O)C3(C)C)cn1 ? Condition met

* * *

- TARGET_OR_SYSTEM: mouse ENT-1 transporter (Mus musculus, UniProt Q9JIM1)
- PROTOCOL_NOTES: Measure of adenosine transport activity (ENT1 adenosine uptake inhibition)
- SETTINGS: stable cells expressing mouse ENT-1, [2,8-3H]-adenosine 6 nM, 20 min
Entries and their log10(IC50)
Short version: log10 scale, IC50, µM.

TEST_SMILES | TARGET_OR_SYSTEM | log10(IC50)
Cc1cnc(N2C(=O)C(C)(C)c3ccc(-c4ccnc(C)c4)cc32)cn1 | mouse ENT-1 transporter (Mus musculus, UniProt Q9JIM1) | 0.95
Cc1ncc(-c2ccc3c(c2)N(c2cn[nH]c2)C(=O)C3(C)C)cn1 | mouse ENT-1 transporter (Mus musculus, UniProt Q9JIM1) | 0.67
Cc1ncc(-c2ccc3c(c2)N(c2ccccn2)C(=O)C3(C)C)cn1 | mouse ENT-1 transporter (Mus musculus, UniProt Q9JIM1) | 0.15
Cc1ccc(-c2ccc3c(c2)N(c2cn(C)cn2)C(=O)C3(C)C)cn1 | mouse ENT-1 transporter (Mus musculus, UniProt Q9JIM1) | 0.77
Cc1ncc(-c2ccc3c(c2)N(c2cc(F)ncc2C)C(=O)C3(C)C)cn1 | mouse ENT-1 transporter (Mus musculus, UniProt Q9JIM1) | 0.86
Cc1ncc(-c2ccc3c(c2)N(c2cnc(C4CC4)cn2)C(=O)C3(C)C)cn1 | mouse ENT-1 transporter (Mus musculus, UniProt Q9JIM1) | -1.33
Cc1ncc(-c2ccc3c(c2)N(c2ccnnc2)C(=O)C3(C)C)cn1 | mouse ENT-1 transporter (Mus musculus, UniProt Q9JIM1) | 0.56
Cc1ncc(-c2ccc3c(c2)N(c2cncnc2C)C(=O)C3(C)C)cn1 | mouse ENT-1 transporter (Mus musculus, UniProt Q9JIM1) | 1.19

Could you share what log10(IC50) was measured for Cc1ncc(-c2ccc3c(c2)N(c2ncc[nH]2)C(=O)C3(C)C)cn1 , tested on mouse ENT-1 transporter (Mus musculus, UniProt Q9JIM1)? 0.11

What about Cc1ccc(-c2ccc3c(c2)N(c2cnc(C)cn2)C(=O)C3(C)C)cn1 ? -0.40

What about Cc1ncc(-c2ccc3c(c2)N(c2cn(C)cn2)C(=O)C3(C)C)cn1 ? -0.21

What about Cc1cc(-c2ccc3c(c2)N(c2cn(C)cn2)C(=O)C3(C)C)ccn1 ? 0.85

* * *

Entries and their IC50
- TARGET_OR_SYSTEM: mouse ENT-1 transporter (Mus musculus)
- PROTOCOL_NOTES: Measure of adenosine transport activity (ENT1 adenosine uptake inhibition)
- SETTINGS: stable cells expressing mouse ENT-1, [2,8-3H]-adenosine 6 nM, 20 min
// return numeric value only (unit: nM, not printed)

// worked examples, IC50 included
TEST_SMILES | TARGET_OR_SYSTEM | READING_UNIT | MEASUREMENT
Cc1ncc(-c2ccc3c(c2)N(c2cc(C)c(C)cn2)C(=O)C3(C)C)cn1 | mouse ENT-1 transporter (Mus musculus) | nM | 1280
Cc1ncc(-c2ccc3c(c2)N(c2ncccn2)C(=O)C3(C)C)cn1 | mouse ENT-1 transporter (Mus musculus) | nM | 3880
Cc1cc(C)nc(N2C(=O)C(C)(C)c3ccc(-c4cnc(C)nc4)cc32)n1 | mouse ENT-1 transporter (Mus musculus) | nM | 5630
Cc1ncc(-c2ccc3c(c2)N(c2cncnc2)C(=O)C3(C)C)cn1 | mouse ENT-1 transporter (Mus musculus) | nM | 3890
Cc1ccc(N2C(=O)C(C)(C)c3ccc(-c4cnc(C)nc4)cc32)cn1 | mouse ENT-1 transporter (Mus musculus) | nM | 148

Entry Cc1ncc(-c2ccc3c(c2)N(c2ccc(C)c(C)n2)C(=O)C3(C)C)cn1 has what IC50? 340

What about Cc1ncc(-c2ccc3c(c2)N(c2ncc(Cl)cn2)C(=O)C3(C)C)cn1 ? 203

What about Cc1ncc(-c2ccc3c(c2)N(c2ccc(C4CC4)nn2)C(=O)C3(C)C)cn1 ? 36
